Form field: IC50 (one value per entry).
Tgt: human HSV DNA polymerase UL30 (Human herpesvirus 1 (strain 17) (HHV-1) (Human herpes simplex virus 1), UniProt P04293)
Experiment Summary: biochemical
Conditions: 625 pM HSV polymerase, 20 minutes at room temperature; read-out: HSV-polymerase Biochemical IC50
Note: unit µM is implicit; provide only the numeric part.

## Task Item under review: `Cn1nc(C(=O)NCc2ccc(Cl)cc2)c2c1C(=O)N(CC1(S(=O)(=O)NC(C)(C)CO)CC1)CC2` . Reported IC50?
## Result 0.155

----------
Tgt: human HSV DNA polymerase UL30 (Human herpesvirus 1 (strain 17) (HHV-1) (Human herpes simplex virus 1))
Experiment Summary: biochemical
Conditions: 625 pM HSV polymerase, 20 minutes at room temperature; read-out: HSV-polymerase Biochemical IC50
Form field: IC50 (one value per entry).
Note: unit nM is implicit; provide only the numeric part.

// below: answered compounds
| Compound | Experimental Result |
| --- | --- |
| Cc1ccc(CNC(=O)c2nn(C)c3c2CCN(CC2(S(=O)(=O)C4CC4)CC2)C3=O)cc1 [Example 8] | 1630 |
| Cn1nc(C(=O)NCc2ccc(C#N)cc2)c2c1C(=O)N(CC1(S(=O)(=O)C(C)(C)CN3CC4CC3CO4)CC1)CC2 (stereo not shown) [Example 64] | 60 |
| COc1cc(CNC(=O)c2nn(C)c3c2CCN(CC2(S(=O)(=O)C4CC4)CC2)C3=O)ccc1C#N [Example 15] | 385 |

API: the following record is the query input.
## Task Item under review: C[C@H](NC(=O)c1nn(C)c2c1CCN(CC1(S(=O)(=O)C(C)(C)CO)CC1)C2=O)c1ccc(C#N)cc1 [Example 54] . Reported IC50?
## Result 103
